Ref: ChEMBL document CHEMBL4513216

This section presents compounds with their documented cytotoxicity at 10 µM values.
experiment-summary: Toxicity liver stage against HepG2, at 10uM
Type: cell-based
Set-up: test concentration 10 uM, cell line HepG2-A16-CD81EGFP
assay-conditions: human, HepG2-A16-CD81EGFP cells; read-out: INHIBITION
I only need the number, in %, no unit after it.

                                   compound  number
0  Cc1nn(-c2ccccc2)nc1C(=O)N1CCCC1c1cnn(C)c1 (centres undefined)  -0.857
1       CCc1nnc(Nc2cccc(C3CCN(CCO)CC3)n2)s1   -6.41
2  COc1cccc2ccc(N3CCC(O)(c4ccc(C)cn4)CC3)nc12  -0.942

Moving on to another compound below.
Q: Give reported cytotoxicity at 10 µM value for COc1cccc(OC2CN(C(=O)CCn3cnc4ccccc43)C2)c1
Result: 3.67

---

experiment-summary: Toxicity liver stage against HepG2, at 10uM
Type: cell-based
Parameters: test concentration 10 uM, cell line HepG2-A16-CD81EGFP
assay-conditions: human, HepG2-A16-CD81EGFP cells; read-out: INHIBITION
experimental-readout: cytotoxicity at 10 µM (%)
Write it as a number; the unit % goes unstated.

>>> print(df.to_string())
                                   compound  number
0  COc1cc(C)cc(C(C(=O)O)N(C)Cc2ccon2)c1OC (stereo unspecified)   -3.41
1  COc1ccccc1OCC(=O)NCC(C)(O)C1CC1 (stereo unspecified)  -0.419
2    Cn1cc(CN2CCc3c(COCc4ccncc4)cncc3C2)cn1   -2.37
3  O=C(NCc1ccccn1)c1cnc(C2CCCN2)cn1 (stereo unspecified)    3.62

Q: Give the reported value of cytotoxicity at 10 µM for this record: Cc1nonc1NC(=O)C1SCCc2sccc21 (stereo unspecified)
Result: -2.82

Q: Output cytotoxicity at 10 µM of CC(C)NC(=O)N1CCC2(CCCO2)C1 (stereo unspecified)
Result: 3.14

---

experiment-summary: Toxicity liver stage against HepG2, at 10uM
Type: cell-based
Set-up: test concentration 10 uM, cell line HepG2-A16-CD81EGFP
assay-conditions: human, HepG2-A16-CD81EGFP cells; read-out: INHIBITION
Each item that follows carries a reported cytotoxicity at 10 µM.
Your answer should be a plain number; it is taken to be in %.

Record excerpt, results attached:
>>> print(df.to_string())
                                   molecule  number
0  CC(=O)N1CCCN(C(=O)CCc2c(C)nc3ccnn3c2C)CC1   -3.12
1  CCOCC1CN(Cc2ccco2)Cc2ccnn2C1 (configuration not stated)    -149
2  NC(=O)C1CCN(c2nc3nccc(-c4ccccc4)c3c(=O)[nH]2)CC1      -9
3                OCc1n[nH]c(-c2ccc(F)cc2)n1   -4.64
4  COc1ccnc(N2CCC3(CCCN(CC4CC4)C3=O)C2)n1 (configuration not stated)    1.13

Q: Please indicate cytotoxicity at 10 µM recorded for Clc1ccc(C2NCCc3cc4c(cc32)OCCO4)cc1 (configuration not stated)
Result: -16.3

Q: Look up and state reported cytotoxicity at 10 µM for Cc1cc(C(=O)N2CCC3(CC2)C(=O)N(C)CCN3CC2CC2)c(C)o1
Result: -96.5

Q: Specify measured cytotoxicity at 10 µM for CO[C@@H]1CCN(S(=O)(=O)N(C)C)[C@@H]2CN(Cc3cccnc3)C[C@@H]21 .
Result: -1.91

Q: Please list cytotoxicity at 10 µM recorded for the molecule O=C(NCCn1ccnc1)c1ccn(-c2ccccc2)n1
Result: 0.449

Q: Tell me measured cytotoxicity at 10 µM for CC1CCN(c2nc3cn(Cc4cccc(F)c4)c(=O)c-3c[nH]2)CC1 please.
Result: 4.52

Q: Determine its reported cytotoxicity at 10 µM: Cc1cccc(CSc2ncc(Cl)c(C(=O)O)n2)c1
Result: 3.86

Q: Name the recorded cytotoxicity at 10 µM of the molecule listed here: CCC(C)NC(=O)Nc1ccc(CN2CCOC2=O)cc1 (configuration not stated)
Result: 10.5

Q: Return cytotoxicity at 10 µM for the following molecule: CCC1CN(CC(=O)NCCN2CCCCCC2)c2ccccc2S1 (configuration not stated)
Result: -1.14

Q: Name the recorded cytotoxicity at 10 µM of the item O=C(Cn1cc(C2CC2)nn1)N(Cc1ccco1)Cc1cccs1 in your answer.
Result: -13.3

Q: Note down cytotoxicity at 10 µM recorded for O=S(=O)(NCc1ccccc1Cn1cncn1)C1CCCC1
Result: 0.674

Q: Tell me its cytotoxicity at 10 µM given CC[C@@H](C)[C@@H](N)C(=O)Nc1cccc(-c2cnc(N)nc2)c1 as the entry.
Result: 0.942

Q: Hello, please tell me recorded cytotoxicity at 10 µM for this one: CC(C)(CN1CCC2(CCOCC2)CC1)N1CCOCC1
Result: -148

Q: Answer with the recorded cytotoxicity at 10 µM for the molecule listed here: CN1CCCN(C(=O)c2ccnn2-c2ccc3ccccn23)CC1
Result: -107

Q: Assign cytotoxicity at 10 µM to the following record: Cc1noc(CNC(=O)CN(C)c2nc3c(C)ccc(C)c3s2)n1
Result: 55.7

---

experiment-summary: Toxicity liver stage against HepG2, at 10uM
Assay type: cell-based
Parameters: test concentration 10 uM, cell line HepG2-A16-CD81EGFP
assay-conditions: human, HepG2-A16-CD81EGFP cells; read-out: INHIBITION
experimental-readout: cytotoxicity at 10 µM (%)
# unit: % | format: bare number

In [3]: df
Out[3]:
                                   compound   experimental_readout  number
0  O=C(Cc1cccs1)NCC1Cn2nnc(-c3ccoc3)c2CO1 (centres undefined)  cytotoxicity at 10 µM    6.06

Q: For the compound CCCc1nnsc1C(=O)NCC1CCN(c2ccccn2)CC1 , give its reported cytotoxicity at 10 µM.
Result: -16.7

Q: Provide cytotoxicity at 10 µM value for the following compound: CNC(=O)c1cccc(C2CNCCN2C)c1 (centres undefined)
Result: 2.91

Q: Look up and state reported cytotoxicity at 10 µM for Cc1ccc(CN2CCC3(CC2)CN(c2ccccc2)C(=O)CO3)o1
Result: -116

---

# cytotoxicity at 10 µM per record follows
experiment-summary: Toxicity liver stage against HepG2, at 10uM
Format: cell-based
Parameters: test concentration 10 uM, cell line HepG2-A16-CD81EGFP
assay-conditions: human, HepG2-A16-CD81EGFP cells; read-out: INHIBITION
Please give a number only; it is taken to be in %.

In [3]: df
Out[3]:
                                   molecule  endpoint_unit  number
0  O=C(CCCn1cncn1)N1CCC2(CCCN(CC3CC3)C2=O)C1 (configuration not stated)              %  -0.611

Q: Retrieve cytotoxicity at 10 µM measured for CN(Cc1ccncc1)C(=O)NCc1cn(-c2ccccc2)nn1 and print it.
Result: -55.7

---

experiment-summary: Toxicity liver stage against HepG2, at 10uM
Type: cell-based
Design: test concentration 10 uM, cell line HepG2-A16-CD81EGFP
assay-conditions: human, HepG2-A16-CD81EGFP cells; read-out: INHIBITION
experimental-readout: cytotoxicity at 10 µM (%)
Please give a number only; it is taken to be in %.

Example entries begin here.
                                   compound   experimental_readout  number
0           CCc1nc(CN(C)CC(=O)OC(C)(C)C)cs1  cytotoxicity at 10 µM    3.91
1  CN(C(=O)Cn1nc(-c2ccc(F)cc2)ccc1=O)C1CCS(=O)(=O)C1 (stereo not drawn)  cytotoxicity at 10 µM   -3.57
2  CC(c1ccc(F)c(F)c1)N1CCN(Cc2nccn2C)CC1 (stereo not drawn)  cytotoxicity at 10 µM   -2.76
3  CC(C)c1noc(-c2ccnc(-n3cnc(C(=O)O)c3)c2)n1  cytotoxicity at 10 µM   0.715
4  Cc1nc(N2CCN(C(=O)c3ccccc3)CC2)c2c(n1)c(C)nn2C  cytotoxicity at 10 µM    15.7
5          COCc1ccccc1CNCc1c(C)nn(C)c1N(C)C  cytotoxicity at 10 µM   -8.45
6  O=c1[nH]c2c(-c3ccccn3)nsc2c(=O)n1CC1CCCO1 (stereo not drawn)  cytotoxicity at 10 µM    9.26
7  CC(=O)c1cc(CN2C[C@@H](NS(=O)(=O)N(C)C)[C@H](C(C)C)C2)cs1  cytotoxicity at 10 µM   -7.79

Q: Identify measured cytotoxicity at 10 µM associated with CC(C)c1ccc(S(=O)(=O)N2CSCC2C(=O)NCC(F)(F)F)cc1 (stereo not drawn)
Result: -13.3

Q: Query cytotoxicity at 10 µM for FC(F)(F)c1n[nH]c2c1CN(Cc1cn3ccccc3n1)CC2
Result: 7.76

Q: Answer with the recorded cytotoxicity at 10 µM for the compound listed here: CC(C)Oc1ncccc1CNC(=O)c1cnccn1
Result: -10.2

Q: Please give measured cytotoxicity at 10 µM of the following entry: CCNc1cc2c(nn1)CCN(C(=O)CCc1c(C)noc1Cl)C2
Result: -3.25

Q: Entry CC(=O)CN1CCC2(CC1)c1ccccc1[C@@H](N1CCSCC1)[C@@H]2O needs its cytotoxicity at 10 µM filled in; supply it.
Result: -27.1

Q: Provide measured cytotoxicity at 10 µM value, entry: CC(=O)c1cc(CN2C[C@@H](N(C)C)[C@H](C(C)C)C2)cs1
Result: 0.305

Q: Name the recorded cytotoxicity at 10 µM of the compound listed here: CNCc1cc(C)n(-c2ccccc2OC)c1C
Result: -45

Q: # return recorded cytotoxicity at 10 µM for input CC(=O)NCC(=O)N1CCOC2(CCCN(c3cccnc3)C2)C1 (stereo not drawn)
Result: -12.8

Q: Respond only with cytotoxicity at 10 µM recorded for COCC(=O)Nc1cnn(COc2ccc(F)cc2Cl)c1
Result: -4.52

Q: Item CCNc1ncc(C(=O)NCc2csc(-c3ncccn3)n2)cn1 : provide cytotoxicity at 10 µM
Result: 6.59

Q: Annotate the compound COc1ccc(-c2ccc(C(=O)N3CCOCC3CC(=O)O)o2)cc1 (stereo not drawn) with its measured cytotoxicity at 10 µM.
Result: 1.79

Q: Tell me cytotoxicity at 10 µM reported for CC(=O)N1CCC(c2nn(C)c3nccnc23)C1 (stereo not drawn)
Result: -21.1

Q: Please report the measured cytotoxicity at 10 µM for COc1ccc(-n2cnnc2SCCC#N)cn1
Result: 22.2

Q: Name the recorded cytotoxicity at 10 µM of the item Cc1occc1C(=O)NCC(=O)N(C)CCCOc1ccccc1 in your answer.
Result: -50.2

Q: Give the reported value of cytotoxicity at 10 µM for this record: CN(CCc1ccccn1)C(=O)CCC1CCCN(S(C)(=O)=O)C1 (stereo not drawn)
Result: 4.77

Q: Fill in cytotoxicity at 10 µM for record CCCC(NC(=O)c1cncc(C)c1)c1nnn[nH]1 (stereo not drawn)
Result: -15.5

Q: Please look at this compound and report its cytotoxicity at 10 µM: Cc1ccc(C(CC(=O)O)NC(=O)CCc2cccs2)cc1 (stereo not drawn)
Result: -4.32

Q: Report cytotoxicity at 10 µM, nothing else, for this compound: Cc1nc(CC(=O)N2CCCN(c3ccc(F)cc3)CC2)cs1
Result: 3.35

Q: Provide one value: measured cytotoxicity at 10 µM of O=C1COc2ccc(C(=O)NS(=O)(=O)c3cc(F)ccc3F)cc2N1
Result: -4.92

Q: Dear colleague, please send me the reported cytotoxicity at 10 µM for Cc1cc(C(=O)NCCN2CCCCC2C)nn1C(C)(C)C (stereo not drawn) when you can.
Result: 1.57

Q: Tell me its cytotoxicity at 10 µM given c1ccc(Cc2nnc(CN3CCCC(Cn4cncn4)C3)o2)cc1 (stereo not drawn) as the entry.
Result: -4.51

Q: // Input: Cc1noc(C)c1C(=O)N1CCC(c2cc3cnccc3[nH]2)CC1 . Output its cytotoxicity at 10 µM only.
Result: 7.07
